meta.source: patent EP3027591B1

Molecular target: pig kidney microsomal leucyl aminopeptidase, Type IV-S (Sus scrofa)
Sequence (P15145 1-963): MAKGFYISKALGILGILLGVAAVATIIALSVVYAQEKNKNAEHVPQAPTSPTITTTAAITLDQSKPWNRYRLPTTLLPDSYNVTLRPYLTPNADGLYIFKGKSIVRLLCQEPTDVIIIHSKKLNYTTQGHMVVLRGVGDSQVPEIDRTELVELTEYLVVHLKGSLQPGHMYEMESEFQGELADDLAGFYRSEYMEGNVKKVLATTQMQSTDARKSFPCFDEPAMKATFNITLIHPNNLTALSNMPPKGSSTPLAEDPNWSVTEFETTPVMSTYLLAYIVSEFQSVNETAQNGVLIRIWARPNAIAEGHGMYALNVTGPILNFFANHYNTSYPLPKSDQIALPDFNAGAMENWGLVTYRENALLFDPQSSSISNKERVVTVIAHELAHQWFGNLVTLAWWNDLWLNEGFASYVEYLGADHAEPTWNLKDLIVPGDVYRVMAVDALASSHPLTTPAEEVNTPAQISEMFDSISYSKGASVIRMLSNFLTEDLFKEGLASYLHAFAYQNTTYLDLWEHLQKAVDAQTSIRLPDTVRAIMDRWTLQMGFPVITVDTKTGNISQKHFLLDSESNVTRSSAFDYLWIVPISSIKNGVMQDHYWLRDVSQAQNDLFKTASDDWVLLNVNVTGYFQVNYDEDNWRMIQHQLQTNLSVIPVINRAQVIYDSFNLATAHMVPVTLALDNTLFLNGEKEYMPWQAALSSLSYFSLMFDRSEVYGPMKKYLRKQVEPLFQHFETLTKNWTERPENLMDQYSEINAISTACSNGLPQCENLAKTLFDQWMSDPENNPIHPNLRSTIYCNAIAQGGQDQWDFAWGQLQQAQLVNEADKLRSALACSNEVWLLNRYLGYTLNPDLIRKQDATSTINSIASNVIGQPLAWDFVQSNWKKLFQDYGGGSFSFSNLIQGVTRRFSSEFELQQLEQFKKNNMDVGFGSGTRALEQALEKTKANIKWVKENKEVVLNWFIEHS
Assignment: determine reported IC50 for the given compounds.
Provide only the numeric value, understood in µM.

(Q) What value of IC50 has been recorded for this entry: `CCOC(=O)C1(C(=O)OCC)Cc2cc(O)cc(O)c2C=N1`
(A) 1350

(Q) What value of IC50 has been recorded for this entry: `CCOC(=O)C1(C(=O)OCC)Cc2cc(OCc3ccccc3)cc(OCc3ccccc3)c2C=N1`
(A) 28

(Q) What value of IC50 has been recorded for this entry: O=C(O)C1Cc2cc(O)c(O)c(O)c2C=N1 (stereo not drawn)
(A) 3800
